Source of measurements: patent US20200283478A1

# Target Entity: T1, PCSK9Δhelix (human, UniProt Q8NBP7 31-152; Q8NBP7 168-692)
# T1 construct: Made by TEV cleavage of human PCSK9 M1-Q692 with an engineered TEV site; The new N-terminus of the catalytic domain is S-A168; also called His-PCSK9Δhelix; PCSK9 lacking the P' helix
# T1 sequence (Q8NBP7 31-152, stated change not applied, chain 1 of 2): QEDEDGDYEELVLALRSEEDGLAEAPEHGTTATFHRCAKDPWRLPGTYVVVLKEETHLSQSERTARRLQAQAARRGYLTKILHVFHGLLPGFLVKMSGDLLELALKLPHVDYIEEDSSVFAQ
# T1 sequence (Q8NBP7 other isoform, or with tags, fused parts or gaps mutant, chain 2 of 2): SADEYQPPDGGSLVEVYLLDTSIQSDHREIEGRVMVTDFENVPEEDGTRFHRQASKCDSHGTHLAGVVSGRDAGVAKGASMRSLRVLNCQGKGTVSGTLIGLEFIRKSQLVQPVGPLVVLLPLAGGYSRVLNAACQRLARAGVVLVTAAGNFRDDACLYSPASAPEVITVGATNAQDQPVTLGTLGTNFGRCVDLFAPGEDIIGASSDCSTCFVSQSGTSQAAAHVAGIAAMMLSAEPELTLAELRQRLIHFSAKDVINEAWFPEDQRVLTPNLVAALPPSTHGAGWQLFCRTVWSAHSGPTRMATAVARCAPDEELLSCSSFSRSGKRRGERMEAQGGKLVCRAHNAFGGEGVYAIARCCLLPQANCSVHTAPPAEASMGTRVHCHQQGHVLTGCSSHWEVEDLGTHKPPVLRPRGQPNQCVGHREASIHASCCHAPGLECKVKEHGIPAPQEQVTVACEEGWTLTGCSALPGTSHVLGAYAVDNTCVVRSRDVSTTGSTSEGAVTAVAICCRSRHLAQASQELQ
# Test Details: SPR, Method 1 (Biacore T100, His-tagged target captured on NTA chip)
Bridge positions count the residues as written; N and C are the ends.
Measurement Type: Kd

A selection of reference data follows.
# Binder, Result
data = [
    ("Ac-TVFTSWEEYLDWVGSGDLMPWNLVRIGLLR-NH2 (also called Pep2-8p7; Pep2-8_K9gvpep7) [Compound 20]", "0.366 nM"),
    ("Ac-TVFTSWEEYLDWVGSGCRLPWNLQRIGLPC-NH2 (disulfide 17-30 (inferred), Two Cys, disulfide-cyclized; also called Pep2-8p4; Pep2-8_K9gvpep4) [Compound 19]", "0.0989 nM"),
    ("SGDLMPWNLVRIGLLR (Free N- and C-termini as printed) [Compound 28]", "856 nM"),
]

Next binder, Kd to be filled in.
Ask: Field request: Kd | item: H-SGCFIPWNLQRIGLLC-NH2 (disulfide 3-16 (inferred), Two Cys, disulfide-cyclized) [Compound 26]
Reply: 802 nM
